# key: entry, value: growth
system: Ruminococcus gnavus DSM 108212; assay: growth (OD595) fold change vs plate DMSO controls (fold change (ratio)); higher = more growth; details: incubation time: 27 h, anaerobic, 37 °C
Counter-ions that a name gives are not always drawn.
Please reply with the value in numeric form only.

In the examples that follow, each entry is paired with its recorded growth.
Nc1c2c(nc3ccccc13)CCCC2 [Tacrine hydrochloride] (20 µM) = 0.696
O=C(CCNNC(=O)c1ccncc1)NCc1ccccc1 [Nialamide] (20 µM) = 0.89
O=C1[C@H]2CCCC[C@H]2C(=O)N1CCCCN1CCN(c2nsc3ccccc23)CC1 [Perospirone hydrochloride] (20 µM) = 1.32

Q: Would you kindly share the measured growth for O=S(=O)(O)NC1CCCCC1 [Cyclamic acid] (50 µM) ?
Result: 0.998

Q: Looking for the measured growth of CN[C@H](CC(C)C)C(=O)N[C@H]1C(=O)N[C@@H](CC(N)=O)C(=O)N[C@H]2C(=O)N[C@H]3C(=O)N[C@H](C(=O)N[C@H](C(=O)O)c4cc(O)cc(O)c4-c4cc3ccc4O)[C@H](O)c3ccc(c(Cl)c3)Oc3cc2cc(c3O[C@@H]2O[C@H](CO)[C@@H](O)[C@H](O)[C@H]2O[C@H]2C[C@](C)(N)[C@H](O)[C@H](C)O2)Oc2ccc(cc2Cl)[C@H]1O [Vancomycin hydrochloride] (20 µM) , can you help?
Result: 0.17

Q: // query growth value for entry O=C(O)CSCC(=O)NC1CCSC1=O (stereo not drawn) [Erdosteine] (20 µM)
Result: 1.04

Q: Quick one: growth for CC(C)c1c(C(=O)Nc2ccccc2)c(-c2ccccc2)c(-c2ccc(F)cc2)n1CC[C@@H](O)C[C@@H](O)CC(=O)O [Atorvastatin] (20 µM) ?
Result: 1.28

Q: I have this compound here, C=CCOc1ccc(CC(=O)O)cc1Cl [Alclofenac] (20 µM) , and I need its recorded growth.
Result: 1

Q: What value of growth has been recorded for this entry: Cc1cc(C(C)(C)C)cc(C)c1CC1=NCCN1 [Xylometazoline hydrochloride] (20 µM)
Result: 1.1

Q: Given the compound CN[C@@H]1[C@H](O[C@H]2[C@H](O[C@H]3[C@H](O)[C@@H](O)[C@H](N=C(N)N)[C@@H](O)[C@@H]3N=C(N)N)O[C@@H](C)[C@]2(O)C=O)O[C@@H](CO)[C@H](O)[C@H]1O [Streptomycin sulfate] (20 µM) , what is its reported growth?
Result: 1.15

Q: Field request: growth | item: CC(=O)Oc1ccccc1C(=O)Oc1ccccc1C(=O)O [Acetylsalicylsalicylic acid] (20 µM)
Result: 0.881

Q: Quick check: growth of CN(C)[C@@H]1C(=O)C(C(=O)NCNCCCC[C@H](N)C(=O)O)=C(O)[C@@]2(O)C(=O)C3=C(O)c4c(O)cccc4[C@@](C)(O)[C@H]3C[C@@H]12 [Lymecycline] (20 µM) ?
Result: 0.941

Q: Name the reported growth value associated with the compound COc1ccc2cc([C@H](C)C(=O)O)ccc2c1 [(S)-Naproxen] (20 µM)
Result: 1.08

----------
Collected fold change of Putrescine concentration values appear next to each entry.
test system: Klebsiella aerogenes DSM 30053; test: fold change of Putrescine concentration vs plate DMSO controls (fold change (ratio)); higher = more amine produced, active = hit call of the paper (significant change in both replicates, either direction); settings: incubation time: 27 h, anaerobic, 37 °C
Where a name gives a salt, the structure may show the parent alone.

CN[C@@H]1[C@H](O[C@H]2[C@H](O[C@H]3[C@H](O)[C@@H](O)[C@H](N=C(N)N)[C@@H](O)[C@@H]3N=C(N)N)O[C@@H](C)[C@]2(O)C=O)O[C@@H](CO)[C@H](O)[C@H]1O [Streptomycin sulfate] (20 µM) = 1 (inactive)
CC(=O)NCCCS(=O)(=O)O [Acamprosate calcium] (20 µM) = 1.02 (inactive)
CC(=O)O[C@]1(C(C)=O)CC[C@H]2[C@@H]3C=C(C)C4=CC(=O)CC[C@]4(C)[C@H]3CC[C@@]21C [Megestrol acetate] (20 µM) = 0.971 (inactive)

Q: Entry O=C(Cn1cnnn1)N[C@@H]1C(=O)N2C(C(=O)O)=C(CSc3nncs3)CS[C@H]12 [Ceftezole] (20 µM) has what fold change of Putrescine concentration?
Result: 0.967 (inactive)

Q: Reported fold change of Putrescine concentration for Cc1cccc(C)c1OCC(=O)N[C@@H](Cc1ccccc1)[C@@H](O)C[C@H](Cc1ccccc1)NC(=O)[C@H](C(C)C)N1CCCNC1=O [Lopinavir] (20 µM) : what is it?
Result: 1.04 (inactive)

Q: I am curious: what fold change of Putrescine concentration value has been reported for Cc1nn(C)c(Oc2ccccc2)c1/C=N/OCc1ccc(C(=O)OC(C)(C)C)cc1 (20 µM) ?
Result: 1.06 (inactive)
